- Test system: HeLa cells
- method_description: Cell proliferation assay, photographic image analysis of proliferation, apoptosis and death (PAD assay), HeLa
- Type: cell-based
- Set-up: key: “+” indicates that the compound exibits inhibitory activity; “−” indicates that low or no inhibitory activity was observed
- measurement_context: 6 concentrations tested
observed_property: PAD Assay, HELA 6 pt

Here's what some known entries look like.
In: Looking for the measured PAD Assay, HELA 6 pt of O=S(=O)(Nc1ccc(C(F)(F)F)cc1Cl)c1ccc(Oc2ncc(C(F)(F)F)cc2Cl)cc1 , can you help?
Out: +

In: Looking for the measured PAD Assay, HELA 6 pt of O=[N+]([O-])c1ccc(Oc2c(Cl)cc(S(=O)(=O)Nc3ccc(Cl)cc3[N+](=O)[O-])cc2Cl)c(Cl)c1 , can you help?
Out: +

In: Looking for the measured PAD Assay, HELA 6 pt of O=[N+]([O-])c1ccc(Oc2c(Cl)cc(S(=O)(=O)Nc3cc(C(F)(F)F)ccc3Cl)cc2Cl)c(Cl)c1 , can you help?
Out: +

In: Looking for the measured PAD Assay, HELA 6 pt of O=[N+]([O-])c1ccc(Oc2c(Cl)cc(S(=O)(=O)Nc3ccc(Oc4ccc(F)cc4)c(Br)c3)cc2Cl)c(Cl)c1 , can you help?
Out: +

Further cases:
In: Looking for the measured PAD Assay, HELA 6 pt of O=[N+]([O-])c1ccc(Oc2c(Cl)cc(S(=O)(=O)Nc3ccc(F)cc3)cc2Cl)c(Cl)c1 , can you help?
Out: +

In: Looking for the measured PAD Assay, HELA 6 pt of Cc1cccc(C)c1NS(=O)(=O)c1cc(Cl)c(Oc2ccc([N+](=O)[O-])cc2Cl)c(Cl)c1 , can you help?
Out: +

In: Looking for the measured PAD Assay, HELA 6 pt of O=[N+]([O-])c1ccc(Oc2c(Cl)cc(S(=O)(=O)Nc3cc(F)ccc3F)cc2Cl)c(Cl)c1 , can you help?
Out: +

In: Looking for the measured PAD Assay, HELA 6 pt of O=C1Nc2cc(NS(=O)(=O)c3cc(Cl)c(Oc4ccc([N+](=O)[O-])cc4Cl)c(Cl)c3)ccc2OC1(F)F , can you help?
Out: +

In: Looking for the measured PAD Assay, HELA 6 pt of O=[N+]([O-])c1ccc(Oc2ccc(NS(=O)(=O)c3cccc(Cl)c3)cc2)cc1 , can you help?
Out: −

In: Looking for the measured PAD Assay, HELA 6 pt of O=[N+]([O-])c1ccc(Oc2c(Cl)cc(S(=O)(=O)Nc3ccc4cn[nH]c4c3)cc2Cl)c(Cl)c1 , can you help?
Out: −

In: Looking for the measured PAD Assay, HELA 6 pt of Cc1c(Cl)cccc1S(=O)(=O)Nc1ccc(Oc2ccc(F)cc2)c(Br)c1 , can you help?
Out: +

In: Looking for the measured PAD Assay, HELA 6 pt of O=S(=O)(Nc1ccc(F)cc1C(F)(F)F)c1ccc(Oc2ncc(C(F)(F)F)cc2Cl)cc1 , can you help?
Out: +

###

- System: A549 cells
- method_description: Non-photographic proliferation analysis (Promega Cell titer Aqueous), A549
- Assay type: cell-based
- Parameters: key: “+” indicates that the compound exibits inhibitory activity; “−” indicates that low or no inhibitory activity was observed
- measurement_context: 6 concentrations tested
observed_property: Cell Titer-Aqueous, A549 6 pt

In: Looking for the measured Cell Titer-Aqueous, A549 6 pt of N=C(NS(=O)(=O)c1cc(Cl)c(Oc2ccc([N+](=O)[O-])cc2Cl)c(Cl)c1)c1cccc([N+](=O)[O-])c1 , can you help?
Out: +

In: Looking for the measured Cell Titer-Aqueous, A549 6 pt of COc1ccc(N(S(=O)(=O)c2cc(Cl)c(Oc3ccc([N+](=O)[O-])cc3Cl)c(Cl)c2)S(=O)(=O)c2cc(Cl)c(Oc3ccc([N+](=O)[O-])cc3Cl)c(Cl)c2)cc1Cl , can you help?
Out: −

In: Looking for the measured Cell Titer-Aqueous, A549 6 pt of O=[N+]([O-])c1ccc(Oc2c(Cl)cc(S(=O)(=O)Nc3ccc(Cl)cc3[N+](=O)[O-])cc2Cl)c(Cl)c1 , can you help?
Out: +
